# MEASURED_TARGET: PTB RRM1 WT (human, UniProt P26599-1 41-163)
# Sequence (P26599 41-163): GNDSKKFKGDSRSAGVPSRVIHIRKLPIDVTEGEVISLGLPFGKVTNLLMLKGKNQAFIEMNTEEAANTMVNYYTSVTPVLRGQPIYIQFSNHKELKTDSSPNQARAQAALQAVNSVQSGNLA
# METHOD_SUMMARY: ITC; Kd1, two independent site model, 30 C; ITC (30 C) and NMR (40 C): 20 mM NaCl, 10 mM NaH2PO4 pH 6.5. EMSA: 20 mM NaH2PO4 pH 7.2, 100 mM NaCl, 5 mM MgCl2, 5% glycerol, 1 mM DTT, 50 ug/ml yeast tRNA, 40 ug/ml BSA, room temperature
# CONDITION_DESCRIPTION: protein: recombinant; label: 13C/15N in some NMR samples; hairpin, 5-nt loop UCUUU (positions 10-14)
pKd: −log10 of the molar value.
VALUE_KIND: pKd

GGGACCUGGUCUUUCCAGGUCCC (structured_RNA) [SL UCUUU]: 7.00

Source of measurements: paper PMC7192611
